Listed below: T/C values for each entry.
System: P1534 leukemia ip, CD2F1 mice, survival T/C
Assay: NCI In Vivo Anticancer Drug Screen. Data for tumor model P1534 Leukemia (intraperitoneal) in CD2F1 (CDF1) mice
Conditions: endpoint: mean survival time; dose: 150.0 mg/kg/injection; schedule: Q01DX010 (ip); vehicle: water; higher = longer survival
Inconclusive results and toxic doses are left out.

Example results:
structure as smiles	measurement kind	recorded value
O=C(O)c1cc(C(=O)O)[nH]n1	T/C	103 % of control
OCn1cccn1	T/C	118 % of control
Cc1n[nH]c(C)c1Br	T/C	101 % of control
Cc1[nH]ncc1Br	T/C	98 % of control
CC1=NN(c2ccccc2)C(=O)C1	T/C	94 % of control

Entry `Cc1cc(C)n(C(N)=O)n1` ; assay system P1534 leukemia ip, CD2F1 mice, survival T/C; T/C recorded at 96 % of control

// molecule `NC1=NNC(=O)C1` , assay P1534 leukemia ip, CD2F1 mice, survival T/C, T/C value: 95 % of control

* * *

The reader will find reported T/C values listed item by item below.
Tested on: P1534 leukemia ip, CD2F1 mice, survival T/C
Experiment: NCI In Vivo Anticancer Drug Screen. Data for tumor model P1534 Leukemia (intraperitoneal) in CD2F1 (CDF1) mice
Conditions: endpoint: mean survival time; dose: 31.3 mg/kg/injection; schedule: Q01DX010 (ip); vehicle: saline; higher = longer survival
Toxic doses and inconclusive results are not listed.

structure as smiles	tested target	T/C
CCn1cnc2c(=S)nc[nH]c21	P1534 leukemia ip, CD2F1 mice, survival T/C	114 % of control
CC(=O)Nc1c(Cl)cc2c(c1Cl)Cc1cc([N+](=O)[O-])ccc1-2	P1534 leukemia ip, CD2F1 mice, survival T/C	107 % of control
NCCc1ccccc1	P1534 leukemia ip, CD2F1 mice, survival T/C	92 % of control
Clc1[nH]nc2ccccc12	P1534 leukemia ip, CD2F1 mice, survival T/C	96 % of control
CCCCNc1ncnc2c1cnn2C	P1534 leukemia ip, CD2F1 mice, survival T/C	100 % of control
CN(/N=N/N(C)c1ccccc1)c1ccccc1	P1534 leukemia ip, CD2F1 mice, survival T/C	103 % of control
COc1ccc2c(c1OC)C(=O)O[C@@H]2[C@H]1c2c(cc3c(c2OC)OCO3)CCN1C	P1534 leukemia ip, CD2F1 mice, survival T/C	103 % of control

// next item, T/C requested
According to the records, this molecule `O=CN(O)CC(=O)O` displays T/C of 100 % of control

* * *

Tested on: P1534 leukemia ip, CD2F1 mice, survival T/C
Test: NCI In Vivo Anticancer Drug Screen. Data for tumor model P1534 Leukemia (intraperitoneal) in CD2F1 (CDF1) mice
Conditions: endpoint: mean survival time; dose: 62.5 mg/kg/injection; schedule: Q01DX010 (ip); vehicle: saline; higher = longer survival
Toxic doses and inconclusive results are not listed.
measurement kind: T/C

structure as smiles	recorded value
CC(=O)c1ccc[nH]1	100 % of control
CC(=O)Nc1ccc(/C=N/Nc2ccc([N+](=O)[O-])cn2)cc1	100 % of control

Kindly note the recorded T/C for `O=CN(O)CC(=O)O` , which is 100 % of control

Documented T/C of `NCCc1ccccc1` : 100 % of control

For reference, reported T/C for `CN(/N=N/N(C)c1ccccc1)c1ccccc1` stands at 111 % of control

Measured T/C, `Cc1ccccn1` : 96 % of control

Value of measured T/C for the entry `Nc1c(Br)cc2c(c1Br)Cc1cc([N+](=O)[O-])ccc1-2` : 107 % of control
